# Tested on: isolated rat aorta
# ASSAY REMARKS: Test A: activity against contractions induced by low K+ concentrations in the isolated rat aorta
# CONDITION LABEL: concentration reducing the 20mM K⁺-induced contraction by 90%; rat thoracic aorta strips denuded of endothelium, Krebs solution, cumulative concentrations; read-out: Activity Test A EC₉₀
ASSAY ENDPOINT: EC90 (nM)

CNC(=S)[C@]1(c2cccnc2)CCCC[C@H]1N[C@H](C)c1cccc2ccccc12 [BE] | 3

(P) CNC(=S)[C@]1(c2cccnc2)CCCC[C@H]1NOCc1ccccc1 (racemic) [AA]
(Q) CNC(=S)[C@]1(c2cccnc2)CCCC[C@H]1N[C@H](C)c1ccccc1 [BD]
(R) CNC(=S)[C@]1(c2cccnc2)CCCC[C@H]1NOC (racemic) [Compound AB]
Task field, ranking: reported EC90, descending order. // format: requested-order list of labels
R, P, Q

Provenance of the data: patent EP0403398A1
